- systemName: feline FcRn complex (FcRn-α subunit and β-microglobulin), biotin labeled (feline)
- testProtocol: SPR, pH 7.4
# Lookup of reported Kd keyed by entry
Express the result in nM but write the number alone.

binder: feline IgG1a S434R (antibody, part only; not given: Variable domains, not shown: another chain or arm of the molecule) constant: ASTTAPSVFPLAPSCGTTSGATVALACLVLGYFPEPVTVSWNSGALTSGVHTFPAVLQASGLYSLSSMVTVPSSRWLSDTFTCNVAHPPSNTKVDKTVRKTDHPPGPKPCDCPKCPPPEMLGGPSIFIFPPKPKDTLSISRTPEVTCLVVDLGPDDSDVQITWFVDNTQVYTAKTSPREEQFNSTYRVVSVLPILHQDWLKGKEFKCKVNSKSLPSPIERTISKAKGQPHEPQVYVLPPAQEELSRNKVSVTCLIKSFHPPDIAVEWEITGQPEPENNYRTTPPQLDSDGTYFVYSKLSVDRSHWQRGNTYTCSVSHEALHRHHTQKSLTQSPGK
measuredProperty: Kd
experimentalResult: 16.3

binder: feline IgG1a S252H/D312P (antibody, part only; not given: variable domains, not shown: another chain or arm of the molecule; small tags and cut ends) constant: ASTTAPSVFPLAPSCGTTSGATVALACLVLGYFPEPVTVSWNSGALTSGVHTFPAVLQASGLYSLSSMVTVPSSRWLSDTFTCNVAHPPSNTKVDKTVRKTDHPPGPKPCDCPKCPPPEMLGGPSIFIFPPKPKDTLHISRTPEVTCLVVDLGPDDSDVQITWFVDNTQVYTAKTSPREEQFNSTYRVVSVLPILHQPWLKGKEFKCKVNSKSLPSPIERTISKAKGQPHEPQVYVLPPAQEELSRNKVSVTCLIKSFHPPDIAVEWEITGQPEPENNYRTTPPQLDSDGTYFVYSKLSVDRSHWQRGNTYTCSVSHEALHSHHTQKSLTQSPGK
measuredProperty: Kd
experimentalResult: 26.7

binder: feline IgG1a S434F (antibody, part only; not given: Variable domains, not shown: another chain or arm of the molecule) constant: ASTTAPSVFPLAPSCGTTSGATVALACLVLGYFPEPVTVSWNSGALTSGVHTFPAVLQASGLYSLSSMVTVPSSRWLSDTFTCNVAHPPSNTKVDKTVRKTDHPPGPKPCDCPKCPPPEMLGGPSIFIFPPKPKDTLSISRTPEVTCLVVDLGPDDSDVQITWFVDNTQVYTAKTSPREEQFNSTYRVVSVLPILHQDWLKGKEFKCKVNSKSLPSPIERTISKAKGQPHEPQVYVLPPAQEELSRNKVSVTCLIKSFHPPDIAVEWEITGQPEPENNYRTTPPQLDSDGTYFVYSKLSVDRSHWQRGNTYTCSVSHEALHFHHTQKSLTQSPGK
measuredProperty: Kd
experimentalResult: 21

Then this binder:
# get_value(readout='Kd', item= feline IgG1a S428L/S434Y (antibody, part only; not given: Variable domains, not shown: another chain or arm of the molecule; small tags and cut ends) constant: ASTTAPSVFPLAPSCGTTSGATVALACLVLGYFPEPVTVSWNSGALTSGVHTFPAVLQASGLYSLSSMVTVPSSRWLSDTFTCNVAHPPSNTKVDKTVRKTDHPPGPKPCDCPKCPPPEMLGGPSIFIFPPKPKDTLSISRTPEVTCLVVDLGPDDSDVQITWFVDNTQVYTAKTSPREEQFNSTYRVVSVLPILHQDWLKGKEFKCKVNSKSLPSPIERTISKAKGQPHEPQVYVLPPAQEELSRNKVSVTCLIKSFHPPDIAVEWEITGQPEPENNYRTTPPQLDSDGTYFVYSKLSVDRSHWQRGNTYTCSVLHEALHYHHTQKSLTQSPGK )
46.9
